# maps each entry to its melting point
recorded metric: melting point

compound=Cc1cn(-c2cc(Br)c3c(c2)CCC(=O)N3)c(C)n1 recorded_metric="melting point" value_measured="242 °C"
compound=O=C1CCN(C(=O)c2ccc(Cl)cc2)CC1 recorded_metric="melting point" value_measured="61 to 63 °C"
compound=CCOC(=O)C1=C(C)NC(C)=C(C(=O)N[C@H](C(=O)OCC)C(C)C)[C@@H]1c1cccc([N+](=O)[O-])c1 recorded_metric="melting point" value_measured="135 to 136 °C"
compound=N#Cc1ccccc1C=Cc1ccccc1C#N recorded_metric="melting point" value_measured="187 to 189 °C"
compound=CCSc1nc(=O)n(C(=O)Nc2cccc(Cl)c2)s1 recorded_metric="melting point" value_measured="168 °C"
compound=CCCN(CCC)c1nc2c(N3CCCC3)nccc2c(=O)[nH]1 recorded_metric="melting point" value_measured="220 °C"
compound=C[C@@H](S[C@H]1CO[C@H](c2ccc(C(=O)Nc3nc4ccccc4s3)cc2)OC1)[C@](O)(Cn1cncn1)c1ccc(F)cc1F recorded_metric="melting point" value_measured="107 °C"
compound="Cc1c(NC(=O)CC(C)(C)C)c(C)c2c(c1-c1cccc(F)c1)OCC2c1ccc(C(C)C)cc1 (stereo unspecified)" recorded_metric="melting point" value_measured="182 to 183 °C"
compound=Cc1c(O)cccc1C(=O)N[C@@H](Cc1ccccc1)[C@H](O)C(=O)N1CSC(C)(C)[C@H]1C(=O)N[C@H]1CCSc2ccccc21 recorded_metric="melting point" value_measured="125 to 127 °C"
compound="CCCNC(=O)c1ccc2c(c1)N(C(C)CN(C)CC)c1ccccc1S2 (racemic)" recorded_metric="melting point" value_measured="100 °C"
compound=C=C(C)C(=O)Nc1ccc(-n2nc(C(F)(F)F)cc2C(F)(F)F)cc1 recorded_metric="melting point" value_measured="160 to 162 °C"
compound=C=CCNC(=O)N1CC(Oc2ccccn2)C1 recorded_metric="melting point" value_measured="72 to 76 °C"
compound=O=C(Cc1ccccc1)Nc1cnc(-c2ccccc2)nc1Cl recorded_metric="melting point" value_measured="169 °C"
compound=O=Cc1cn(-c2c(Cl)cc(C(F)(F)F)cc2Cl)c2ccccc12 recorded_metric="melting point" value_measured="167 to 169 °C"
compound=CC(C)(C)NS(=O)(=O)c1ccccc1C=C1CCOC1=O recorded_metric="melting point" value_measured="173 to 176 °C"
compound=N#CNc1nc2ccc(Cl)cc2[nH]1 recorded_metric="melting point" value_measured="> 300 °C"
compound="CCOC(=O)C1=C(C)Nc2ncnn2C1C (stereo unspecified)" recorded_metric="melting point" value_measured="155 to 157 °C"
compound="CC1CC(=O)NN=C1c1ccc2c(c1)OCC(=O)N2 (stereo unspecified)" recorded_metric="melting point" value_measured="> 300 °C"
compound=CCOC(=S)SCCC(=O)N1CCC[C@H]1C(=O)O recorded_metric="melting point" value_measured="94 to 95 °C"
compound=CCOC(=O)CCCOc1ccc([N+](=O)[O-])c(C=C2NC(=O)NC2=O)c1 recorded_metric="melting point" value_measured="131 to 134 °C"
compound=O=C(ONC1CCCCC1)c1n[nH]c2c(=O)[nH]c3cc(Cl)ccc3c(=O)c12 recorded_metric="melting point" value_measured="220 °C"

----------
# maps each entry to its melting point
recorded metric: melting point

compound=CC(C)OC(=O)N1CC(=O)Nc2ccc(-c3cccc(Cl)c3)cc21 value_measured="174 to 176 °C"
compound="O=C(O)c1ccc(OCCNC(=O)C2Cc3ccccc3N2S(=O)(=O)c2ccc(-c3ccc(F)cc3F)cc2)cc1F (stereo not given)" value_measured="91 to 94 °C"
compound=N#CC(N)=C(C#N)N=Cc1nn(-c2c(Cl)cc(C(F)(F)F)cc2Cl)nc1C(F)(F)F value_measured="218 to 220 °C"
compound=CCCn1nc2c(N)nc3ccccc3c2c1CC(C)(C)NC(=O)C1CCCCC1 value_measured="190 to 191 °C"
compound=CCOC(=O)c1cc(-n2c(=O)[nH]c3c(c2=O)CCCC3)ccc1Cl value_measured="196 to 198 °C"
compound=CC(C)(C)OC(=O)N1C(=O)CCC1=O value_measured="76 to 78 °C"
compound=C=Cc1cc(CNC(=O)NCc2ccc(C(C)(C)C)cc2)cc(C)c1NS(C)(=O)=O value_measured="105 to 107 °C"
compound="C=CCC(O)c1c(-c2ccc(F)cc2)nc(N(C)S(C)(=O)=O)nc1C(C)C (stereo not given)" value_measured="126 °C"
compound=Cc1ccc(S(=O)(=O)Oc2c(Cl)cc(C3=NNC(=O)CC3)cc2Cl)cc1 value_measured="208 to 209 °C"
compound="CC(=O)OC1CSC(Oc2cccc(-c3cc(Cl)ccn3)c2)C(OC(C)=O)C1OC(C)=O (stereo not given)" value_measured="152 °C"
compound="CC1(C)C(CC(Cl)(Cl)Cl)C1C(=O)O (stereo not given)" value_measured="85 to 89 °C"
compound=Cc1nc(N2CCN(Cc3ccc(F)cc3)C2=O)sc1C(=O)NCc1cnn(C)c1 value_measured="173 to 175 °C"
compound=C#CCn1nc(-c2ccc(Cl)cc2)n(CC)c1=O value_measured="115 to 119 °C"
compound=Nc1nnc(CCC2CCCCC2)s1 value_measured="253 to 255 °C"
compound=COc1ccc(C(=O)Nc2c(Cl)cc(NC(C)=O)cc2Cl)cc1OC1CCCC1 value_measured="250 to 252 °C"
compound=CCc1cccc(C)c1CNc1ccnc2c1nc(C)n2C value_measured="105 to 109 °C"
compound=CCOc1ccccc1C=[N+]([O-])C1CCCC1 value_measured="87.3 °C"
compound=CC[C@@H](O)CC(=O)N[C@H]1CC[C@H](CCN2CCC(c3cccc4c3CCO4)CC2)CC1 value_measured="201 °C"
compound=CCCCCCCCCCCC(=O)CO value_measured="52 to 54 °C"
compound="COC(=O)c1cc(C[C@@H]2COc3ccc(OCc4nc5cc(F)ccc5s4)cc3[C@@H]2O)ccc1OC (relative stereo)" value_measured="160 to 162 °C"

----------
recorded metric: melting point

molecule="COC(=O)C(C)c1ccc2cc(OC(=O)CO[N+](=O)[O-])ccc2c1 (stereo not given)" value_measured="72 to 74 °C"
molecule=CCOC(=O)C=Cc1cc(-c2csc(-c3ccc(OCC)c(OCC)c3)n2)cc(C(=O)OCOC)c1OCOC value_measured="94 to 96 °C"
molecule=CC(C)(C)c1ccc(Oc2nc(-c3ccc(Cl)cc3)c(CCC(=O)O)o2)cc1 value_measured="166 to 167 °C"
molecule=Cc1ncnc(-c2ccc(Oc3ccc([N+](=O)[O-])cc3)cc2)n1 value_measured="148 to 149 °C"
molecule="O=C1c2ccc(Cl)cc2CC1Br (stereo not given)" value_measured="69 to 76 °C"
molecule=O=C(O)Cc1ccc(-n2sc3ccccc3c2=O)cc1 value_measured="173 to 175 °C"
molecule="CCC(Oc1ccc(CCC(=O)c2ccc(-c3ccc(C(F)(F)F)cc3)s2)cc1)C(=O)O (stereo not given)" value_measured="116 to 117 °C"
molecule="COC(=O)C1=C(C)NC(C)=C(C(=O)OCCCCCCOc2cc(-c3ccc(OC)cc3)[nH]n2)C1c1cccc(Cl)c1Cl (stereo not given)" value_measured="146 to 148 °C"
molecule=CCOC(=O)c1cc(Oc2ccc(C(F)(F)F)cc2Cl)ccc1[N+](=O)[O-] value_measured="156 to 160 °C"
molecule="Cc1ccc2c(c1)C=Cc1ncccc1C2c1cn(C)c(=O)[nH]c1=S (stereo not given)" value_measured="157 to 160 °C"
molecule=Cc1nc(-c2cc(Cl)ccc2Cl)n2c1nnc1ccc(N3CCOCC3)cc12 value_measured="239 to 242 °C"
molecule="COC(=O)c1cc(CCC2CNc3nc(NC(=O)C(C)(C)C)nc(O)c3C2)c[nH]1 (stereo not given)" value_measured="236 to 238 °C"
molecule=CCn1nc2c(N)nc3ncccc3c2c1CC(C)C value_measured="273 to 276 °C"
molecule=Oc1ccc(Nc2nncc3ccccc23)cc1 value_measured="245 to 247 °C"
molecule=CC=CCn1c(C)c(C)c2cnnc(OCc3ccco3)c21 value_measured="84 to 85 °C"
molecule=CCc1ccc(S(=O)(=O)Nc2ccc(Cl)cc2[N+](=O)[O-])cc1 value_measured="104 to 106 °C"
molecule=O=[N+]([O-])c1c(Br)nn(Cc2ccccc2)c1Br value_measured="128 °C"
molecule=CN1CCCCc2cc(-c3cnc(N)nc3N)ccc21 value_measured="206 to 207 °C"
molecule=CCc1nc2c(N)nc3ccccc3c2n1CCCCNC(=O)C1CCCC1 value_measured="179 to 180 °C"
molecule=O=C(O)c1sc2ccc3c(c2c1Cl)O[C@@H](CO)CO3 value_measured="236 to 237 °C"

All values here come from a melting point compilation (Tetko et al.; mined from patent text by program, amines drawn as free bases though some values may be those of a salt).
